biological target: NRAS Q61K (Homo sapiens (Human), UniProt P01111+P62937, Q61K); test: Ras-Raf (BRAF RBD) disruption / FRET / MOA assay, NRAS Q61K; format: biochemical; conditions: NRAS Q61K; Ras-Raf disruption/FRET/MOA assay; read-out: IC50* NRAS Q61K FRET data
Sequence (P01111 whole entry Q61K, one chain of several): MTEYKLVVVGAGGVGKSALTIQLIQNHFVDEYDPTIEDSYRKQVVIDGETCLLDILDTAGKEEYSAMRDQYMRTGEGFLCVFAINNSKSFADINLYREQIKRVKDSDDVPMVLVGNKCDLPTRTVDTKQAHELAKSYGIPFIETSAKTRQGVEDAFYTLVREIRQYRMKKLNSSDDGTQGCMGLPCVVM
pIC50: −log10 of the molar value.
MEASURED QUANTITY: pIC50

COMPOUND	MEASURED QUANTITY	OBSERVED MEASUREMENT
C=CC(=O)N(C)C1CCN(C(=O)N(C)[C@H](C(=O)N[C@H]2Cc3nc(cs3)-c3ccc4c(c3)c(c(-c3cccnc3[C@H](C)OC)n4CC)CC(C)(C)COC(=O)[C@@H]3CCCN(N3)C2=O)C(C)C)CC1 (atropisomer, axis not shown)	pIC50	7.00 to 8.00
CCn1c(-c2cccnc2[C@H](C)OC)c2c3cc(ccc31)-c1cccc(c1)C[C@H](NC(=O)[C@H](C(C)C)N1CO[C@@]3(CCN(C(=O)/C=C/CN(C)C)C3)C1=O)C(=O)N1CCC[C@H](N1)C(=O)OCC(C)(C)C2 (atropisomer, axis not shown)	pIC50	5.00 to 6.00
C=CC(=O)N1CC[C@H](C(=O)N(C)[C@H](C(=O)N[C@H]2Cc3cccc(c3)-c3ccc4c(c3)c(c(-c3cccnc3[C@H](C)OC)n4CC)CC(C)(C)COC(=O)[C@@H]3CCCN(N3)C2=O)C(C)(C)F)C1 (atropisomer, axis not shown)	pIC50	5.00 to 6.00
C=CC(=O)N1CCO[C@@H]2CN(C(=O)N(C)[C@H](C(=O)N[C@H]3Cc4nc(cs4)-c4ccc5c(c4)c(c(-c4cccnc4[C@H](C)OC)n5CC)CC(C)(C)COC(=O)[C@@H]4CCCN(N4)C3=O)C(C)C)C[C@H]21 (atropisomer, axis not shown)	pIC50	7.00 to 8.00
C=CC(=O)N1CC[C@H]2[C@@H]1CN2C(=O)N(C)[C@H](C(=O)N[C@H]1Cc2nc(cs2)-c2ccc3c(c2)c(c(-c2cccnc2[C@H](C)OC)n3CC)CC(C)(C)COC(=O)[C@@H]2CCCN(N2)C1=O)C(C)C (atropisomer, axis not shown)	pIC50	6.00 to 7.00
C=CC(=O)N1CCOC2(CCN(C(=O)N(C)[C@H](C(=O)N[C@H]3Cc4cc(C(F)F)cc(n4)-c4ccc5c(c4)c(c(-c4cccnc4[C@H](C)OC)n5CC(F)(F)F)CC(C)(C)COC(=O)[C@@H]4CCCN(N4)C3=O)C(C)C)CC2)C1 (atropisomer, axis not shown)	pIC50	6.00 to 7.00

Req: Item C=CC(=O)N(C)[C@@H]1C[C@H]1N(C)C(=O)N(C)[C@H](C(=O)N[C@H]1Cc2nc(cs2)-c2ccc3c(c2)c(c(-c2cccnc2[C@H](C)OC)n3CC)CC(C)(C)COC(=O)[C@@H]2CCCN(N2)C1=O)C(C)C (atropisomer, axis not shown) with NRAS Q61K (Homo sapiens (Human), UniProt P01111+P62937, Q61K) - pIC50?
Resp: 7.00 to 8.00

---

Molecular target: KRAS G12V (Homo sapiens (Human), UniProt P01116+P62937, G12V)
Sequence (P01116-2 other isoform, or with tags, fused parts or gaps G12V): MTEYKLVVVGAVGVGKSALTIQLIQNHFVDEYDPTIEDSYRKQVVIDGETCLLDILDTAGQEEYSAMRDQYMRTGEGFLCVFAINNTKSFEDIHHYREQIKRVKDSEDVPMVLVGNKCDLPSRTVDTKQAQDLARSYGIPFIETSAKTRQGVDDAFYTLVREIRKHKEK
Sequence (P62937 whole entry): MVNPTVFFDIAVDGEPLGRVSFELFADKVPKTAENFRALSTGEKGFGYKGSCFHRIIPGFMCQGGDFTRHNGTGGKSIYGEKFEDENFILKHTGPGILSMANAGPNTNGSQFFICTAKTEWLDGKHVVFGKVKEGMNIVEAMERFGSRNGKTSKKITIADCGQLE
Assay: Ras-Raf (BRAF RBD) disruption / FRET / MOA assay, KRAS G12V
Format: biochemical
Details: read-out: IC50* KRAS G12V FRET data
Description: The purpose of this biochemical assay is to measure the ability of test compounds to facilitate ternary complex formation between a nucleotide-loaded Ras isoform and cyclophilin A; the resulting ternary complex disrupts binding to a BRAF^RBD construct, inhibiting Ras signaling through a RAF effector. Compound is present in plate wells as a 10-point 3-fold dilution series starting at a final concentration of 30 μM. […]
MEASURED QUANTITY: IC50

MOLECULE	MEASURED QUANTITY	OBSERVED MEASUREMENT
C=CC(=O)N1CC(OC[C@H](C(=O)N[C@H]2Cc3cc(F)cc(c3)-c3ccc4c(c3)c(c(-c3cccnc3[C@H](C)OC)n4CC(F)(F)F)CC(C)(C)COC(=O)[C@@H]3CCCN(N3)C2=O)C(C)C)C1 (atropisomer, axis not shown) [Example A725]	IC50	1 to 10 µM
C=CC(=O)N1CC(OCC(C(=O)N[C@H]2Cc3nc(cs3)-c3ccc4c(c3)c(c(-c3cccnc3[C@H](C)OC)n4CC)CC(C)(C)COC(=O)[C@@H]3CCCN(N3)C2=O)C(C)C)C1 (mixture of isomers) [Example A473]	IC50	1 to 10 µM

Req: Give the reported IC50 for CO[C@@H](C)c1ncccc1-c1c2c3cc(ccc3n1CC(F)(F)F)-c1cc(cc(C(F)F)c1)C[C@H](NC(=O)[C@H](C(C)C)N(C)C(=O)[C@H]1CCN(C(=O)C#CC(C)(C)N3CCC3)C1)C(=O)N1CCC[C@H](N1)C(=O)OCC(C)(C)C2 (atropisomer, axis not shown) [Example A370] (system: KRAS G12V (Homo sapiens (Human), UniProt P01116+P62937, G12V)).
Resp: 1 to 10 µM

Req: Please state recorded IC50 (tested on KRAS G12V (Homo sapiens (Human), UniProt P01116+P62937, G12V)) of C=CC(=O)N(C)CC1CN(C(=O)N(C)[C@H](C(=O)N[C@H]2Cc3nc(cs3)-c3ccc4c(c3)c(c(-c3cccnc3[C@H](C)OC)n4CC)CC(C)(C)COC(=O)[C@@H]3CCCN(N3)C2=O)C(C)C)C1 (atropisomer, axis not shown) [Example A368]
Resp: 0.01 to 0.1 µM

Req: Query the reported IC50 for KRAS G12V (Homo sapiens (Human), UniProt P01116+P62937, G12V); item: CC#CC(=O)N1CC[C@H](C(=O)N(C)[C@H](C(=O)N[C@H]2Cc3cccc(c3)-c3ccc4c(c3)c(c(-c3cccnc3[C@H](C)OC)n4CC)CC(C)(C)COC(=O)[C@@H]3CCCN(N3)C2=O)C(C)C)C1 (atropisomer, axis not shown) [Example A173]
Resp: 1 to 10 µM

Req: Form field: IC50 recorded for C=CC(=O)N1CC(OC[C@H](C(=O)N[C@H]2Cc3cc(cc(C(F)F)c3)-c3ccc4c(c3)c(c(-c3cccnc3[C@H](C)OC)n4CC)CC(C)(C)COC(=O)[C@@H]3CCCN(N3)C2=O)C(C)C)C1 (atropisomer, axis not shown) [Example A345] with KRAS G12V (Homo sapiens (Human), UniProt P01116+P62937, G12V) (enter value)
Resp: > 10 µM

Req: Observed IC50 on KRAS G12V (Homo sapiens (Human), UniProt P01116+P62937, G12V) for CCn1c(-c2cccnc2COC)c2c3cc(ccc31)-c1cc(O)cc(c1)C[C@H](NC(=O)[C@H](C(C)C)N(C)C(=O)[C@H]1CCC(C(=O)/C=C\CN(C)C)C1)C(=O)N1CCC[C@H](N1)C(=O)OCC(C)(C)C2 (stereo partly drawn) [Example A164] , please.
Resp: 0.1 to 1 µM
